Molecular target: Human PD-L1/PD-1 (Homo sapiens)
Construct: made in house; host or cells: HEK293T
Sequence (Q9NZQ7 with tags, fused parts or gaps): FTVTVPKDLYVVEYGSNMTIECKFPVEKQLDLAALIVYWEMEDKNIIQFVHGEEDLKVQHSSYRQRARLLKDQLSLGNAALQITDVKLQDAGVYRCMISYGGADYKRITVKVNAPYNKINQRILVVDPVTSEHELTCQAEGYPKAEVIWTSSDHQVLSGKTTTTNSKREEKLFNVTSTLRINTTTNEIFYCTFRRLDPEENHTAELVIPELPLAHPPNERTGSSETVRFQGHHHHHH
Assay: HTRF PD-1-Ig/PD-L1-His binding assay (human PD-L1)
Conditions: cluster symbol; read-out: HTRF IC50 cluster
Positions of bridges follow the written chain, without caps; N, C: chain ends. Non-standard residues stand in square brackets, D forms with d. Residues, ends and D or L forms follow the SMILES beside them. ξ: configuration not given here. Bip(2'-Me) = Cc1ccccc1-c1ccc(C[C@H](N)C(=O)O)cc1; Bta = N[C@@H](Cc1csc2ccccc12)C(=O)O; NMeNle = CCCC[C@H](NC)C(=O)O; ξR = N=C(N)NCCCC(N)C(=O)O; NMeA = CN[C@@H](C)C(=O)O; Nle = CCCC[C@H](N)C(=O)O; ξP = O=C(O)C1CCCN1; ξC = NC(CS)C(=O)O; ξS = NC(CO)C(=O)O; Sar = CNCC(=O)O
METRIC: IC50

1) CCCC[C@H]1C(=O)N(C)[C@@H](CCCC)C(=O)NC(CCCNC(=N)N)C(=O)NC(C(=O)NCC(N)=O)CSCC(=O)N[C@@H](Cc2ccccc2)C(=O)N(C)[C@@H](C)C(=O)N[C@@H](CC(N)=O)C(=O)N2CCCC2C(=O)N[C@@H](Cc2cnc[nH]2)C(=O)N[C@@H](CC(C)C)C(=O)N(C)CC(=O)N[C@@H](Cc2c[nH]c3ccccc23)C(=O)NC(CO)C(=O)N[C@@H](Cc2ccc(-c3ccccc3C)cc2)C(=O)N1C (some centres unmarked) [Example 1030] ({CH2CO}-F[NMeA]N[ξP]HL[Sar]W[ξS][Bip(2'-Me)][NMeNle][NMeNle][ξR][ξC]G-NH2; thioether N-14)
> 30.5 nM
2) CCCC[C@@H]1NC(=O)[C@H](Cc2cnc[nH]2)NC(=O)[C@@H]2CCCN2C(=O)[C@H](CC(N)=O)NC(=O)[C@H](C)N(C)C(=O)[C@H](Cc2ccc(O)cc2)NC(=O)CSCC(C(=O)NCC(N)=O)NC(=O)[C@H](CCCNC(=N)N)NC(=O)[C@H](CCCC)N(C)C(=O)[C@H](CCCC)N(C)C(=O)[C@H](Cc2csc3ccccc23)NC(=O)[C@H](CO)NC(=O)[C@H](Cc2c[nH]c3ccccc23)NC(=O)[C@H]2CCCN2C1=O (some centres unmarked) [Example 9002] ({CH2CO}-Y[NMeA]NPH[Nle][dP]WS[Bta][NMeNle][NMeNle]R[ξC]G-NH2; thioether N-14)
6.76 to 30.3 nM
